Molecular target: human glucocorticoid receptor alpha (hGRα) (Homo sapiens, UniProt P04150)
Assay: cell-based
Format: cell-based
Test Readout: EC50

C[C@]12CC[C@@H]3c4ccc(O)cc4CC[C@H]3[C@@H]1CC[C@@H]2O [17β-Estradiol (E2), 17β-estradiol] :: Not active
C[C@]12CCC(=O)C=C1CC[C@@H]1[C@@H]2C(=O)C[C@@]2(C)[C@H]1CC[C@]2(O)C(=O)CO [Cortisone, cortisone] :: Not active
CC(=O)OCC(=O)[C@@]1(O)CC[C@H]2[C@@H]3CCC4=CC(=O)CC[C@]4(C)[C@@]3(F)[C@@H](O)C[C@@]21C [Fludrocortisone-21-acetate, fludrocortisone-21-acetate] :: Not active

* * *

Target: hGRα (Homo sapiens, UniProt P04150)
Sequence (P04150 1-777): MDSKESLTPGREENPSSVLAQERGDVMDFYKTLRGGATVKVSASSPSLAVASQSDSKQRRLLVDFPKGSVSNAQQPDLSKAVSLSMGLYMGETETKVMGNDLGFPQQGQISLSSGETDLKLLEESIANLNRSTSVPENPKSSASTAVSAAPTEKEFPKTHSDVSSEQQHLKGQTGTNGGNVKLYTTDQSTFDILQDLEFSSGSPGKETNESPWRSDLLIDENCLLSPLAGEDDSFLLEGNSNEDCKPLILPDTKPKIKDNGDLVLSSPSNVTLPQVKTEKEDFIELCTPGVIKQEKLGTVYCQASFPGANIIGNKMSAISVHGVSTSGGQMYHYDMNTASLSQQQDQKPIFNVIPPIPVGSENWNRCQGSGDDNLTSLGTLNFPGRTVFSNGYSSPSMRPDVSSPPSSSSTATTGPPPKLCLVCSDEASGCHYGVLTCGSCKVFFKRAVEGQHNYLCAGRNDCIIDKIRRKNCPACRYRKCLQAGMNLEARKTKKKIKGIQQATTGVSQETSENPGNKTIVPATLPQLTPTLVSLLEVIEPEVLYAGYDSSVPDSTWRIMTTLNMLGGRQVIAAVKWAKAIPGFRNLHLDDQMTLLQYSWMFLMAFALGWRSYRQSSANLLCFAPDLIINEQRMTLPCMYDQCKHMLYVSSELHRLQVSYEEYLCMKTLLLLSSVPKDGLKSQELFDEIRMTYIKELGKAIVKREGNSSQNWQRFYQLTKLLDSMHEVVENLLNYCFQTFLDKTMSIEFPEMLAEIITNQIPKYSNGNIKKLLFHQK
Assay: cell-based
Assay type: cell-based
Settings: ratio EC50 of dexamethasone / EC50 of compound, GR-CALUX
Test Readout: RCP (relative corticoid potency)
API note: the answer field is a bare number with no unit suffix.

# example entries with known answers
C[C@]12C=CC(=O)C=C1CC[C@H]1[C@@H]3C[C@@H](O)[C@](O)(C(=O)CO)[C@@]3(C)C[C@H](O)[C@@]12F [Triamcinolone, triamcinolone] :: 0.1
C[C@]12CCC(=O)C=C1CC[C@@H]1[C@@H]2C(=O)C[C@@]2(C)[C@H]1CC[C@]2(O)C(=O)CO [Cortisone, cortisone] :: 0

Return the recorded RCP (relative corticoid potency) value; entry: C[C@]12C[C@H](O)[C@H]3[C@@H](CCC4=CC(=O)CC[C@@]43C)[C@@H]1CC[C@@H]2C(=O)CO [Corticosterone, corticosterone] 0.03

Give RCP (relative corticoid potency) for C[C@]12CCC(=O)C=C1CC[C@@H]1[C@@H]2[C@@H](O)C[C@]2(C=O)[C@@H](C(=O)CO)CC[C@@H]12 [Aldosterone] 0.004

Return reported RCP (relative corticoid potency). Input compound: C[C@]12CC[C@@H]3c4ccc(O)cc4CC[C@H]3[C@@H]1CC[C@@H]2O [17β-Estradiol (E2), 17β-estradiol] 0

* * *

Target: human glucocorticoid receptor alpha (hGRα) (Homo sapiens, UniProt P04150)
Assay: cell-based
Format: cell-based
Conditions: EC50
Test Readout: EC50 (µM)
Please give a number only; it is taken to be in µM.

C[C@]12C[C@H](O)[C@H]3[C@@H](CCC4=CC(=O)CC[C@@]43C)[C@@H]1CC[C@@H]2C(=O)CO [Corticosterone, corticosterone] :: 71

# context switch: different compound, same EC50
Indicate the recorded EC50 value for this compound: C[C@]12CCC(=O)C=C1CC[C@@H]1[C@@H]2[C@@H](O)C[C@]2(C=O)[C@@H](C(=O)CO)CC[C@@H]12 [Aldosterone] 705
